# Test system: MDA-MB-435
# test name: NCI tumour cell line growth inhibition, 48 h
observation type: TGI

Prompt: Report TGI, nothing else, for this compound: `Cc1ccc(Nc2nc3ccccc3nc2NS(=O)(=O)c2ccc(N)cc2)cc1`
Completion: > 100 µM

Prompt: Report TGI, nothing else, for this compound: Nc1nc(N)c2nc(CNc3ccc(C(=O)NC(CCC(=O)O)C(=O)O)cc3)cnc2n1 (stereo not drawn)
Completion: > 100 µM

Prompt: Report TGI, nothing else, for this compound: `O=[N+]([O-])c1ccc(-c2ccc([C@H]3CC(c4cc(F)c(Cl)cc4Cl)=NN3)o2)cc1`
Completion: > 100 µM
